Biological target: human melanocortin 1 receptor (human), Q01726
Sequence (Q01726 whole entry): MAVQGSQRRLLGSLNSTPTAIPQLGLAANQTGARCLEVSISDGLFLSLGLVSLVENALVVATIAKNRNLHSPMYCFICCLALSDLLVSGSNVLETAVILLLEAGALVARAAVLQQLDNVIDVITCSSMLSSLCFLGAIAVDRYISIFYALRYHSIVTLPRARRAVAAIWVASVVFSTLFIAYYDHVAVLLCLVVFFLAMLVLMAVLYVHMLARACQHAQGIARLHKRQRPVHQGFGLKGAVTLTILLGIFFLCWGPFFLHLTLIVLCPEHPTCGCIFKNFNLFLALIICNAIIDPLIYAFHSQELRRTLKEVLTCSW
Assay: cell-based or functional assay
observation-type: MC1R cAMP EC50 (nM)
Give a bare numeral; the unit nM is implied.

Param item = CAHFRWCAEEAW (modifications not checked) [Chem. 102] ; retrieve measured MC1R cAMP EC50.
14.3

Look up MC1R cAMP EC50: CAHFRWCPPERW (modifications not checked) [Chem. 112]
30.2

May I ask what MC1R cAMP EC50 has been recorded for CAHFRWCAHFRW (modifications not checked) [Chem. 56] ?
35.3

Look at this binder and give its reported MC1R cAMP EC50. CAHFRWCAHFRW (modifications not checked) [Chem. 10]
4.88
